The binders listed here are annotated with their MFI fold over background.
EXPERIMENTAL TARGET: T1, full-length untagged human GPNMB expressed on cells (human, UniProt Q14956 23-572)
T1 construct: also used here for GPNMB on human monocyte-derived macrophages in the functional assays; also called huGPNMB; Freestyle293-huGPNMB+
T1 sequence: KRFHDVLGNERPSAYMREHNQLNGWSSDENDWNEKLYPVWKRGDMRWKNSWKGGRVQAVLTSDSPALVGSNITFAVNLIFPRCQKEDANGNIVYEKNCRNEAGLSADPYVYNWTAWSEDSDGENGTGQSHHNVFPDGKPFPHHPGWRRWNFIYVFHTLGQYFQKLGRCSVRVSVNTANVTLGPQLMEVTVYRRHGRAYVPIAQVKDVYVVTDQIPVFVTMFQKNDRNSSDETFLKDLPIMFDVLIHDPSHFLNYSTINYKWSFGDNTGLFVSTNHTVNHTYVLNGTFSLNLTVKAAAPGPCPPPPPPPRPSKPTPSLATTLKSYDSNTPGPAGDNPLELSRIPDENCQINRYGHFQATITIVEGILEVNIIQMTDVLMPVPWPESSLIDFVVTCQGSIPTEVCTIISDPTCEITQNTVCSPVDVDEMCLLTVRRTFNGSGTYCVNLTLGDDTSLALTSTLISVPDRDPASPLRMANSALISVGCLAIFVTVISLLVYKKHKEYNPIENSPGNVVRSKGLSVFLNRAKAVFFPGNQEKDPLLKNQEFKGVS
EXPERIMENTAL DETAILS: FACS, FS293-huGPNMB+ cells
Quick reminder: number only, in fold, skip the unit.

Name the recorded MFI fold over background for anti-GPNMB antibody GPN-48 (antibody, human IgG1, V domains shown, chimeric) VH: QVQLQQSGPELVKPGASVKLSCRASGYGFSSFWMNWVKQRPGKGLEWIGRIYPGKGDTLYNGKFKDKATLTADESSSTAYMQLSSLTSEDSAVYFCARSIYYYDYWYFDVWDTGTTVTVSS VL: DIVMTQSHKFMSTSVGDRVNITCKASQDVNSAIAWYQQKPGQSPKLLIYSASYRFIGVPDRFTGSGSGTGFTFTISSVQAEDLAVYYCQQHYTTPLTFGAGTKLELK .
9.7

Continuing:
Name the recorded MFI fold over background for anti-GPNMB antibody GPN-34 (antibody, human IgG1, V domains shown, chimeric) VH: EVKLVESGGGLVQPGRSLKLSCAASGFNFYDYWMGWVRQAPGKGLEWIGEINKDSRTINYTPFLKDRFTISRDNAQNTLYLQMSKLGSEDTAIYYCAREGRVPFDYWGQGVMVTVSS VL: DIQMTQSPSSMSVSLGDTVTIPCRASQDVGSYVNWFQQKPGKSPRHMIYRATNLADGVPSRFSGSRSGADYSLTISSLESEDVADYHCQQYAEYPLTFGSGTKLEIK .
125
